system: GRIP2_4, Q9C0E4
Sequence (Q9C0E4 446-548): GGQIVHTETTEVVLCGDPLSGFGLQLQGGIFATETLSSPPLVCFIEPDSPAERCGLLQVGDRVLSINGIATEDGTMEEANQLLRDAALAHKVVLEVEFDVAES
assay-overview: holdup assay
Design: key: below the threshold = too weak to quantify, mostly under pKd 3.1 to 4
condition-parameters: plain residues with an end cap or a label only (N-terminal biotin on a linker: ado-ado)
recorded-metric: pKd

Solved cases below.
DTTVPESEDL [MYOZ2, Q9NPC6]
below the threshold
VNKSKLLTDV [KCNA1, Q09470]
below the threshold
NLSIEKETKL [ASNSD1, Q9NWL6]
below the threshold
SKSNFGSEPL [KIF17, Q9P2E2]
below the threshold
EVNETDDTKM [KCNJ1, P48048]
below the threshold

Would you kindly look at the next entry?
Name the recorded pKd of the binder listed here: TLPRKRMSSI [GPRC6A, Q5T6X5]
below the threshold
